Molecular target: T1, Human CD24-mFc (human, UniProt P25063 27-59)
T1 chain: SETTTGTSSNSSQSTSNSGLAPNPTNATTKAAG
Experiment: BLI (Gatorprime)
Answer each item with its documented log10(Kd).
Note the log scale: values are log10 of Kd expressed in nM.

Fill in log10(Kd) for each of the 4 binders listed.
1. 81A1F8-VH-21/VL-21 (antibody, V domains shown) VH: QVQLVQSGAEVKKPGASVKVSCKASGYLFTGYYMNWVRQAPGQGLEWMGEINPNTGDTNNNQKFKARVTMTVDRSTSTAYMELSSLRSEDTAVYYCVRRDYGTSLDYWGQGTLVTVSS VL: DVQITQSPSFLSASVGDRVTITCRASKSINKYLAWYQQKPGKAPKLLIHSGSTLQSGVPSRFSGSRSGTEFTLTISSLQPEDFATYYCQQHNEYPITFGQGTKLEIK
2. ch81A1F8-hIgG4 (antibody, V domains shown) VH: EVQLQQSGPELVKPGASVKISCKATGYLFTGYYMNWVKQSPEKSLEWIGEINPNTGDTNNNQKFKAKATMTVDRSSSTAYMQLKRLTSEDSAVYYCVRRDYGTSLDYWGQGTTLTVSS VL: DVQITQSPSYLAASPGETITINCRASKSINKYLAWYQEKPGKTNKLLIHSGSTLQSGIPSRFSGSRSGTDFTLTISNLEPEDFAMYYCQQHNEYPITFGAGTKLELK
3. 81A1F8-VH-31/VL-11 (antibody, V domains shown) VH: QVQLVQSGAEVKKPGASVKVSCKASGYLFTGYYMNWVRQAPGQRLEWMGEINPNTGDTNNNQKFKARVTITVDRSASTAYMELSSLRSEDTAVYYCVRRDYGTSLDYWGQGTLVTVSS VL: DVQITQSPSSLSASVGDRVTITCRASKSINKYLAWYQQKPGKAPKLLIHSGSTLQSGVPSRFSGSRSGTDFTLTISSLQPEDFATYYCQQHNEYPITFGQGTKLEIK
4. 81A1F8-VH-31/VL-41 (antibody, V domains shown) VH: QVQLVQSGAEVKKPGASVKVSCKASGYLFTGYYMNWVRQAPGQRLEWMGEINPNTGDTNNNQKFKARVTITVDRSASTAYMELSSLRSEDTAVYYCVRRDYGTSLDYWGQGTLVTVSS VL: DVQITQSPSTLSASVGDRVTITCRASKSINKYLAWYQQKPGKAPKLLIHSGSTLQSGVPSRFSGSRSGTEFTLTISSLQPDDFATYYCQQHNEYPITFGQGTKLEIK

-1.09
-0.62
-0.61
4.33

Fill in log10(Kd) for each of the 2 binders listed.
1. 81A1F8-VH-21/VL-11 (antibody, V domains shown) VH: QVQLVQSGAEVKKPGASVKVSCKASGYLFTGYYMNWVRQAPGQGLEWMGEINPNTGDTNNNQKFKARVTMTVDRSTSTAYMELSSLRSEDTAVYYCVRRDYGTSLDYWGQGTLVTVSS VL: DVQITQSPSSLSASVGDRVTITCRASKSINKYLAWYQQKPGKAPKLLIHSGSTLQSGVPSRFSGSRSGTDFTLTISSLQPEDFATYYCQQHNEYPITFGQGTKLEIK
2. 81A1F8-VH-11/VL-11 (antibody, V domains shown) VH: QVQLVQSGAEVKKPGASVKVSCKASGYLFTGYYMNWVRQAPGQGLEWMGEINPNTGDTNNNQKFKARVTMTVDRSISTAYMELSRLRSDDTAVYYCVRRDYGTSLDYWGQGTLVTVSS VL: DVQITQSPSSLSASVGDRVTITCRASKSINKYLAWYQQKPGKAPKLLIHSGSTLQSGVPSRFSGSRSGTDFTLTISSLQPEDFATYYCQQHNEYPITFGQGTKLEIK

1: -1.80; 2: -1.69
